molecular target: Metabotropic glutamate receptor 5 (Rattus norvegicus) (UniProt P31424); experiment: Positive allosteric modulator activity at rat mGlu5 receptor expressed in HEK293 cells assessed as potentiation of glutamate-induced calcium mobilization at 30 uM by fluorescence assay relative to glutamate; format: functional, cell-based
Sequence (P31424 21-1203 limits assumed): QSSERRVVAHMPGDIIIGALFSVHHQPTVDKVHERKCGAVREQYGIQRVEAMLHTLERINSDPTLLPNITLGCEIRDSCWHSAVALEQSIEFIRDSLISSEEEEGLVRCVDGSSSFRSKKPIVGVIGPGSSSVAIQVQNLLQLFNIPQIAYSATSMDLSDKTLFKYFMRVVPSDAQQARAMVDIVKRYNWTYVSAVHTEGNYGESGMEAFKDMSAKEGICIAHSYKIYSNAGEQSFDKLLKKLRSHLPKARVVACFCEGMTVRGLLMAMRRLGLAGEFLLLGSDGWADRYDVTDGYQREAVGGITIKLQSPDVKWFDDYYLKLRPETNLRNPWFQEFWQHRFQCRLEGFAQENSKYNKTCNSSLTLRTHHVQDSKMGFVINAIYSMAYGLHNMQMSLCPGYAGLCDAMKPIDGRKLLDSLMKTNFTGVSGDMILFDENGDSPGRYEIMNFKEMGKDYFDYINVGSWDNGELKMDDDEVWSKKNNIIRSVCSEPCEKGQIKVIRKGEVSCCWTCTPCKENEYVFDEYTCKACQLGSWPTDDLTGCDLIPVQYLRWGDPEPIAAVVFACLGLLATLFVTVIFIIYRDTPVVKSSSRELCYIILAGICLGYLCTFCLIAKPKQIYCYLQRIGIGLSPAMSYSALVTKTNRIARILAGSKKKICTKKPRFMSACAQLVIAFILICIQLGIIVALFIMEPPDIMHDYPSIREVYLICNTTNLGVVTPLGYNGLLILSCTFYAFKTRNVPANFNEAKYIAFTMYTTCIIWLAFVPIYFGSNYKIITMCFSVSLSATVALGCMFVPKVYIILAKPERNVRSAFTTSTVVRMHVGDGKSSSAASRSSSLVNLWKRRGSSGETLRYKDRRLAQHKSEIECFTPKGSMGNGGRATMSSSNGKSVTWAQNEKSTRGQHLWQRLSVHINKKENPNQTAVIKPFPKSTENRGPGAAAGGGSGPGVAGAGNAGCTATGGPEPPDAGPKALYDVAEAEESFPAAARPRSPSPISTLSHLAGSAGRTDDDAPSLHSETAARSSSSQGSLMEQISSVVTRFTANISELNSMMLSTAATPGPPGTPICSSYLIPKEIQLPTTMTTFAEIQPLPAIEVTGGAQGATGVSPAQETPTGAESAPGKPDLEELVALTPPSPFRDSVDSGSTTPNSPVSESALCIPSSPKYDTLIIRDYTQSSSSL
value.kind: Activity

Below: 5 compounds and their reported Activity.
compound O=C1c2ccc(OCc3ccccc3)nc2CCN1Cc1ccccn1 , Activity observed: < 10%

response.value for CN1CCc2nc(OCc3cccc(F)c3)ccc2C1=O (field: Activity) = < 10%

So for O=C1NCCc2cc(COc3ccccc3)ncc21 , the logged Activity turned out to be < 10%

The reported value for CN1CCc2nc(COc3cccc(F)c3)ccc2C1=O in terms of Activity is < 10%

Reported Activity of C[C@@H](N1CCc2cc(COc3ccccc3)cnc2C1=O)C(C)(C)C : < 10%

Others:
Kindly note the recorded Activity for O=C1NCCc2nc(OCc3ccccn3)ccc21 , which is < 10%

So, CCCCOc1ccc2c(n1)CCN(c1ccc(F)cc1F)C2=O ? Its Activity was < 10%

# Activity of O=C1NCCc2nc(OCc3ccccc3Cl)ccc21 = < 10%

* * *

assay: Cmax in Sprague-Dawley rat at 10 mg/kg, po; assay type: ADME, organism-based; set-up: dose 10 mg/kg, route oral; details: in vivo
value.kind: Cmax (µM)
Give the value in µM but do not write µM after it.

Sample O=C1NCCc2nc(OCc3cccc(F)c3)ccc21 ; Cmax observed: 3.36

* * *

target: Cytochrome P450 2C9 (Homo sapiens, UniProt P11712)
Sequence (P11712 whole entry): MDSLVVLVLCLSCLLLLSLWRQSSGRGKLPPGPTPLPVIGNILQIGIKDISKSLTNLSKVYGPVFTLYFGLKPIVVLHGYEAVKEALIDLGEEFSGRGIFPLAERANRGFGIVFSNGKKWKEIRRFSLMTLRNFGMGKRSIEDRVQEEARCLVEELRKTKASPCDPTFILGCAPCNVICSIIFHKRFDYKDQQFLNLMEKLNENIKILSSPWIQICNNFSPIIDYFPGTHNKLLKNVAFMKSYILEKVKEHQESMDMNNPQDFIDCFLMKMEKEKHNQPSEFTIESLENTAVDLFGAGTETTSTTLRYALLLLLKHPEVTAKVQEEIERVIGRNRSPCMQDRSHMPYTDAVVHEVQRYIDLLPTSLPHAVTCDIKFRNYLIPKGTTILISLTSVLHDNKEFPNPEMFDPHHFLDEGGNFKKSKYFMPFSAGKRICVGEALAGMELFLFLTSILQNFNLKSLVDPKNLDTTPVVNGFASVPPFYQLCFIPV
value.kind: IC50

Case O=C1NCCc2nc(OCc3cccc(F)c3)ccc21 , Cytochrome P450 2C9 (Homo sapiens, UniProt P11712), IC50 recorded as > 30 µM

* * *

biological target: Metabotropic glutamate receptor 5 (Rattus norvegicus); test: Positive allosteric modulator activity at rat mGlu5 receptor expressed in HEK293 cells assessed as potentiation of glutamate-induced calcium mobilization at 30 uM by fluorescence assay relative to glutamate; assay type: functional, cell-based
Recorded %max for the following molecules
Dear colleague, please return just the value in %, with no unit written.

Solved cases below.
For O=C1c2ncc(COc3ccccc3)cc2CCN1c1ccc(F)cc1 on Metabotropic glutamate receptor 5 (Rattus norvegicus), measured %max was 81

Reported Metabotropic glutamate receptor 5 (Rattus norvegicus) %max for item O=C1NCCc2nc(COc3cccc(F)c3)ccc21 was 34

Next:
%max of O=C1NCCc2nc(OCc3ccccc3)ccc21 , assay on Metabotropic glutamate receptor 5 (Rattus norvegicus), is 54

The molecule O=C1NCCc2nc(COc3ccccc3)ccc21 , tested on Metabotropic glutamate receptor 5 (Rattus norvegicus), showed %max of 43

I looked up O=C1c2ccc(COc3cccc(F)c3)nc2CCN1CC1CC1 and its %max for Metabotropic glutamate receptor 5 (Rattus norvegicus) was 33

For O=C1c2ccc(OCc3cccc(F)c3)nc2CCN1c1ccc(F)cn1 on Metabotropic glutamate receptor 5 (Rattus norvegicus), measured %max was 50

Value sought: %max, system Metabotropic glutamate receptor 5 (Rattus norvegicus), item O=C(c1ccc(F)cc1)N1CCc2ncc(COc3ccccc3)cc2C1 . Result: 69

* * *

target: Metabotropic glutamate receptor 5 (Rattus norvegicus, UniProt P31424); assay: Partial antagonist activity at rat mGlu5 receptor expressed in HEK293 cells
Sequence (P31424 whole entry): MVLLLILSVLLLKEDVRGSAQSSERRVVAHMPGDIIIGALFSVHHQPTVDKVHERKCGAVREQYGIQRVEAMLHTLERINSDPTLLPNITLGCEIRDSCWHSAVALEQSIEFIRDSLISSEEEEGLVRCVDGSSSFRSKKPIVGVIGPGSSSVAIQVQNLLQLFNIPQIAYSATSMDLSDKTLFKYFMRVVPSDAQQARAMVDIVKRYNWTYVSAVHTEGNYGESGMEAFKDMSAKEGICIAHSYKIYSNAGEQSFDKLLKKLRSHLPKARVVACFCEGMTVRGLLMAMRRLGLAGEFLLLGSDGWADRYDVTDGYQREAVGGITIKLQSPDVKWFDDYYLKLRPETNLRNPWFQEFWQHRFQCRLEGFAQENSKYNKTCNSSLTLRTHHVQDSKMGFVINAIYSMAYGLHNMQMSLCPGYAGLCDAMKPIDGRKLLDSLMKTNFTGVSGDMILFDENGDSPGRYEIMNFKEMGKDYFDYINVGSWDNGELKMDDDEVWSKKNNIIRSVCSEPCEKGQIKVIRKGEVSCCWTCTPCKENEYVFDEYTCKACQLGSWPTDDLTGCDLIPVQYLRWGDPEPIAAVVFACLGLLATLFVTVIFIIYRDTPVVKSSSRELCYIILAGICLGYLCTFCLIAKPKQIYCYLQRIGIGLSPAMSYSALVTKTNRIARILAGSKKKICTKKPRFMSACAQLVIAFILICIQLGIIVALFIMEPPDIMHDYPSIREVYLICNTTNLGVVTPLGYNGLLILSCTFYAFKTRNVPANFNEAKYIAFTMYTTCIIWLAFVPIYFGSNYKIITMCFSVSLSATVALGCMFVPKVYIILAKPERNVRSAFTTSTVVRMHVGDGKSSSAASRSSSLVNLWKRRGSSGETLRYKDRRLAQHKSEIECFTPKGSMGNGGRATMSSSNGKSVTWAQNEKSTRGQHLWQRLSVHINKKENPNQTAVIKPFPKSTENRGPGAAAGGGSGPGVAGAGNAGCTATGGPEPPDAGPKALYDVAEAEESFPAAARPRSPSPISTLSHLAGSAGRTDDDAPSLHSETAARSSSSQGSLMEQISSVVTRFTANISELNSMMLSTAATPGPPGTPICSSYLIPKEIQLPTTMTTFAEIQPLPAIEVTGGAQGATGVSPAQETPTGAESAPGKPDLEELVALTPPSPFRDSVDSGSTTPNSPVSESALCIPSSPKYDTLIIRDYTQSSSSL
value.kind: IC50 (µM)
Quick note: give the figure in µM, leave out the unit.

// sample O=C(c1ccc(F)cc1)N1CCc2ncc(OCc3ccccc3)cc2C1 , its IC50 was 7.81

* * *

biological target: Metabotropic glutamate receptor 6 (Rattus norvegicus, UniProt P35349); assay: Positive allosteric modulator activity at rat mGlu6 receptor expressed in HEK293 cells assessed as glutamate-induced GIRK channel-mediated thallium flux treated 140s prior to gluatamate challenge by fluorescence analysis
value.kind: EC50

Just so you know, measured EC50 for O=C1NCCc2nc(OCc3cccc(F)c3)ccc21 came out at > 10 µM

* * *

experiment: Half life in rat at 1 mg/kg, iv and 10 mg/kg, po; type: ADME, organism-based; settings: in vivo
value.kind: half-life (min)
Reply with just the number (in min).

Briefly, half-life measured for O=C1NCCc2nc(OCc3cccc(F)c3)ccc21 : 18

* * *

molecular target: Metabotropic glutamate receptor 2 (Rattus norvegicus, UniProt P31421); test: Positive allosteric modulator activity at rat mGlu2 receptor expressed in HEK293 cells assessed as glutamate-induced GIRK channel-mediated thallium flux treated 140s prior to gluatamate challenge by fluorescence analysis; format: cell-based
pEC50: −log10 of the molar value.
value.kind: pEC50

Lab book: pEC50 of O=C1NCCc2nc(OCc3cccc(F)c3)ccc21 noted as < 5.00

* * *

biological target: Metabotropic glutamate receptor 8 (Rattus norvegicus, UniProt P70579); assay: Positive allosteric modulator activity at rat mGlu8 receptor expressed in HEK293 cells assessed as glutamate-induced GIRK channel-mediated thallium flux treated 140s prior to glutamate challenge by fluorescence analysis; type: cell-based
Sequence (P70579 whole entry): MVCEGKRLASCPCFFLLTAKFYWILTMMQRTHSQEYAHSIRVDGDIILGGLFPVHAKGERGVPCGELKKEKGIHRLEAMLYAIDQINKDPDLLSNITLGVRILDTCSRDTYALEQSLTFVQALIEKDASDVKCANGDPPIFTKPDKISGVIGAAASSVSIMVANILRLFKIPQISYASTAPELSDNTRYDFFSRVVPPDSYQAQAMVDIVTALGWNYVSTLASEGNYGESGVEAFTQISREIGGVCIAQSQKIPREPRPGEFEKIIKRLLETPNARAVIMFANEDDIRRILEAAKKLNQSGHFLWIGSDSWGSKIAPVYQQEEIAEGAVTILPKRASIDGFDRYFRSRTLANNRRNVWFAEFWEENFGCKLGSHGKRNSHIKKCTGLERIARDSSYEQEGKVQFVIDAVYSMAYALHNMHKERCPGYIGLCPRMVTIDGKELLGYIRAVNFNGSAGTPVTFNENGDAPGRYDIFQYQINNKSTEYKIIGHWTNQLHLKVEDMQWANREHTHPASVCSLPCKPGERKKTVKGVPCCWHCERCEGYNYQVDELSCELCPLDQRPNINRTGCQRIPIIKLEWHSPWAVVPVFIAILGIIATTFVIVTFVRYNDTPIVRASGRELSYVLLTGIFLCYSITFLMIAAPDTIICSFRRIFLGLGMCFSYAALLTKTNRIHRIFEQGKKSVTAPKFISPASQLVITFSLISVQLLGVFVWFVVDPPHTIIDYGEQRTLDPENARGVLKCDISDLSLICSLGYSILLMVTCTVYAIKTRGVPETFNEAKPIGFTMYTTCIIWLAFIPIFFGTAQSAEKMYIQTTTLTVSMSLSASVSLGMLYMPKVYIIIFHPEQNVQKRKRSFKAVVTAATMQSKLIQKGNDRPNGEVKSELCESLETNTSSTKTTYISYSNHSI
value.kind: EC50

Record O=C1NCCc2nc(OCc3cccc(F)c3)ccc21 . Reported EC50: > 10 µM

* * *

biological target: Metabotropic glutamate receptor 7 (Rattus norvegicus, UniProt P35400); assay: Positive allosteric modulator activity at rat mGlu7 receptor expressed in HEK293 cells assessed as L-AP4-induced GIRK channel-mediated thallium flux treated 140s prior to L-AP4 challenge by fluorescence analysis
Sequence (P35400 whole entry): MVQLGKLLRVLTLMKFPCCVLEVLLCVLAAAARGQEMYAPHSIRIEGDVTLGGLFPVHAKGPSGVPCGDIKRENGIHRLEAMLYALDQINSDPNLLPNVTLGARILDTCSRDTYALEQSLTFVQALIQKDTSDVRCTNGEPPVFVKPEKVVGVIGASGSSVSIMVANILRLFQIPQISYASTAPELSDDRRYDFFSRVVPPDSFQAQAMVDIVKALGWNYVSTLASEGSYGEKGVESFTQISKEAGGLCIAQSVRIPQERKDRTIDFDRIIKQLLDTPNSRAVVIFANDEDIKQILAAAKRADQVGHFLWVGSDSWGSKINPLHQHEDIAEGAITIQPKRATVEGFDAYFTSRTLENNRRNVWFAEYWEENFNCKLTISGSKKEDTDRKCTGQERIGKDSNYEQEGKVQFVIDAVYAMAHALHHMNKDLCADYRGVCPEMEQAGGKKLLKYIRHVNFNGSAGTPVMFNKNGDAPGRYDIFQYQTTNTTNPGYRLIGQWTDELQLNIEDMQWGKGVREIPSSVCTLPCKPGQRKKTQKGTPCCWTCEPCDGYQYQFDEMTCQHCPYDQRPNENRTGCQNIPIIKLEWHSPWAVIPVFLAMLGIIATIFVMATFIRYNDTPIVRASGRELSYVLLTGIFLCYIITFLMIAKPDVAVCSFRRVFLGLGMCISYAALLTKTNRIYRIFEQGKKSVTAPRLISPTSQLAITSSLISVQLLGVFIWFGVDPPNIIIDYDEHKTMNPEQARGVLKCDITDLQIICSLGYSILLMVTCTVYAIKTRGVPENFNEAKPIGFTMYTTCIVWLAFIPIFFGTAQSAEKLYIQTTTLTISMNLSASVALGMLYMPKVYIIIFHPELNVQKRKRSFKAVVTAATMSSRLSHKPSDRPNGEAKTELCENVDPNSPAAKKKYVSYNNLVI
value.kind: EC50

Memo: O=C1NCCc2nc(OCc3cccc(F)c3)ccc21 , reported EC50: > 10 µM

* * *

biological target: Cytochrome P450 3A4 (Homo sapiens)
pIC50: −log10 of the molar value.
value.kind: pIC50

Lab note: compound O=C1NCCc2nc(OCc3cccc(F)c3)ccc21 tested on Cytochrome P450 3A4 (Homo sapiens); recorded pIC50 was < 4.52

* * *

test: Fraction unbound in rat brain; format: ADME, tissue-based
value.kind: fraction unbound

For this compound ( O=C1NCCc2nc(OCc3cccc(F)c3)ccc21 ), measured fraction unbound is 0.02

* * *

molecular target: Metabotropic glutamate receptor 5 (Rattus norvegicus); test: Positive allosteric modulator activity at rat mGlu5 receptor expressed in HEK293 cells assessed as potentiation of glutamate-induced calcium mobilization by fluorescence assay; type: functional, cell-based; conditions: read-out: EC50
Listed compounds paired with reported EC50
Response body: numeric value in nM, unit text excluded.

Record excerpt, results attached:
// EC50 value for CC(C)CN1CCc2nc(COc3cccc(F)c3)ccc2C1=O : 1150

# compound O=C1c2cnc(COc3ccccc3)cc2CCN1c1ccc(F)cc1 ; its EC50 = 403

# compound O=C1c2ccc(OCc3cccc(F)c3)nc2CCN1Cc1ccccc1 ; its EC50 = 3170

More entries:
get_value(item= O=C1NCCc2nc(OCc3ccccc3)ccc21 , readout=EC50) returns 1030

* * *

assay: Drug uptake in Sprague-Dawley rat brain at 56.6 mg/kg, po after 1.5 hrs by LC-MS/MS analysis; format: ADME, organism-based; set-up: dose 56.6 mg/kg, route oral; details: read-out: Drug uptake
value.kind: concentration at 1.5 h

Consider O=C1NCCc2nc(OCc3cccc(F)c3)ccc21 . Its measured concentration at 1.5 h is 16.6 µM

* * *

test system: Plasma; assay: Fraction unbound in human plasma; format: ADME, cell-free
value.kind: Fu
Output: the number by itself.

Use these answered entries as a reference point.
For reference, reported Fu for O=C1NCCc2nc(OCc3cccc(F)c3)ccc21 stands at 0.047

For record O=C1c2ccc(COc3ccccc3)nc2CCN1c1ccc(F)cc1 the listed Fu is 0.021

# molecule O=C1c2ncc(COc3ccccc3)cc2CCN1c1ccc(F)cc1 ; its Fu = 0.096

***
Kindly note the recorded Fu for O=C1c2ccc(COc3cccc(F)c3)nc2CCN1c1ccc(F)cc1 , which is 0.014

O=C1c2ccc(OCc3cccc(F)c3)nc2CCN1c1ccc(F)cn1 has a reported Fu of 0.01

* * *

target: Metabotropic glutamate receptor 1 (Rattus norvegicus); test: Positive allosteric modulator activity at rat mGlu1 receptor expressed in HEK293 cells assessed as glutamate-induced calcium mobilization treated 140s prior to glutamate challenge by fluorescence assay
pEC50: −log10 of the molar value.
value.kind: pEC50

# compound O=C1NCCc2nc(OCc3cccc(F)c3)ccc21 ; its pEC50 = < 5.00

* * *

molecular target: Metabotropic glutamate receptor 4 (Rattus norvegicus, UniProt P31423); experiment: Positive allosteric modulator activity at rat mGlu4 receptor expressed in HEK293 cells assessed as glutamate-induced GIRK channel-mediated thallium flux treated 140s prior to gluatamate challenge by fluorescence analysis
value.kind: EC50

Lookup result for O=C1NCCc2nc(OCc3cccc(F)c3)ccc21 ; measured EC50: > 10 µM

* * *

biological target: Cytochrome P450 1A2 (Homo sapiens, UniProt P05177)
value.kind: pIC50
API: returns pIC50 as number; meaning -log10 of concentration in mol/L.

Query O=C1NCCc2nc(OCc3cccc(F)c3)ccc21 on Cytochrome P450 1A2 (Homo sapiens, UniProt P05177); pIC50 returned: 4.59

* * *

target: Metabotropic glutamate receptor 5 (Rattus norvegicus, UniProt P31424); test: Positive allosteric modulator activity at rat mGlu5 receptor expressed in HEK293 cells assessed as potentiation of glutamate-induced calcium mobilization by fluorescence assay; type: functional, cell-based; conditions: read-out: EC50
value.kind: EC50

These recorded examples may help you get a feel for the data.
Item: O=C1c2ccc(COc3ccccc3)nc2CCN1c1ccc(F)cc1 | System: Metabotropic glutamate receptor 5 (Rattus norvegicus, UniProt P31424) | EC50: 198 nM

EC50 of O=C1c2ccc(COc3cccc(F)c3)nc2CCN1c1ccc(F)cn1 , assay on Metabotropic glutamate receptor 5 (Rattus norvegicus, UniProt P31424), is 595 nM

Field EC50 (system: Metabotropic glutamate receptor 5 (Rattus norvegicus, UniProt P31424)) for entry O=C1NCCc2nc(COc3cccc(F)c3)ccc21 = > 10000 nM

# EC50 measured on Metabotropic glutamate receptor 5 (Rattus norvegicus, UniProt P31424) for item O=C1c2ncc(COc3ccccc3)cc2CCN1c1ccc(F)cc1 = 538 nM

Record O=C1NCCc2nc(OCc3ccccc3F)ccc21 has Metabotropic glutamate receptor 5 (Rattus norvegicus, UniProt P31424) EC50 equal to 1170 nM

Metabotropic glutamate receptor 5 (Rattus norvegicus, UniProt P31424) data for O=C(c1cccc(F)c1)N1CCc2ncc(OCc3cccc(F)c3)cc2C1 ; its EC50: 1630 nM

Here O=C1c2ccc(OCc3ccccc3)nc2CCN1Cc1ccccc1 was tested on Metabotropic glutamate receptor 5 (Rattus norvegicus, UniProt P31424), and its EC50 came to 2760 nM

# lookup: O=C1c2ccc(COc3cccc(F)c3)nc2CCN1Cc1ccccc1 on Metabotropic glutamate receptor 5 (Rattus norvegicus, UniProt P31424), EC50 = > 10000 nM

More entries:
Tested system Metabotropic glutamate receptor 5 (Rattus norvegicus, UniProt P31424); EC50 recorded for O=C(c1ccc(F)cc1)N1CCc2ncc(COc3ccc(F)cc3)cc2C1 was 1770 nM

The value of EC50 recorded for O=C1c2ccc(OCc3cccc(F)c3)nc2CCN1CC1CCC1 when tested on Metabotropic glutamate receptor 5 (Rattus norvegicus, UniProt P31424) reads 444 nM

Fill in: Metabotropic glutamate receptor 5 (Rattus norvegicus, UniProt P31424) EC50 for O=C1c2ccc(OCc3cccc(F)c3)nc2CCN1c1ccc(F)cc1 = 118 nM

Given the compound CC1(CN2CCc3nc(OCc4cccc(F)c4)ccc3C2=O)COC1 and test system Metabotropic glutamate receptor 5 (Rattus norvegicus, UniProt P31424), the measured EC50 is 2470 nM
